- Tested on: S. aureus
- test_protocol: In vitro antibacterial assay (zone of inhibition, MIC)
- Assay type: cell-based, Staphylococcus aureus
- cond: Staphylococcus aureus
recorded_endpoint: zone of inhibition at 50 µg/mL (mm)
Return type: number; implicit unit mm.

structure_as_smiles=COc1ccc2cc(C(C)=NNC(N)=S)c(=O)oc2c1 recorded_endpoint="zone of inhibition at 50 µg/mL" obs_value=13
structure_as_smiles=COc1ccc2cc(/C(C)=N\NC(=S)Nc3ccccc3)c(=O)oc2c1 recorded_endpoint="zone of inhibition at 50 µg/mL" obs_value=15.4
structure_as_smiles=CCNC(=S)NN=C(C)c1cc2ccc(OC)cc2oc1=O recorded_endpoint="zone of inhibition at 50 µg/mL" obs_value=12.3

Next item in the queue.
Challenge: What does the data say about its zone of inhibition at 50 µg/mL? Entry: CNC(=S)NN=C(C)c1cc2ccc(OC)cc2oc1=O
Response given: 12.1

###

- Test system: Aspergillus fumigatus
- test_protocol: In vitro antifungal assay (zone of inhibition, MIC)
- Assay type: cell-based
Catalogue of molecules with associated Minimum inhibitory concentration (MIC); head: IC50 VALUES
Return type: number; implicit unit µM.

Example results:
molecule="COc1ccc2[c]3c(c(=O)oc2c1)C(C)=[N+]1N=C(N)[S][Ru-4]31([C]#[O+])([P+](c1ccccc1)(c1ccccc1)c1ccccc1)[P+](c1ccccc1)(c1ccccc1)c1ccccc1 [Complex 1, [Ru(7MAC-tsc)(CO)(PPh3)2]]" endpoint_unit=µM obs_value=15.56
molecule="CCNC1=N[N+]2=C(C)c3[c](c4ccc(OC)cc4oc3=O)[Ru-4]2([C]#[O+])([P+](c2ccccc2)(c2ccccc2)c2ccccc2)([P+](c2ccccc2)(c2ccccc2)c2ccccc2)[S]1 [Complex 3, [Ru(7MAC-etsc)(CO)(PPh3)2]]" endpoint_unit=µM obs_value=14.44

Challenge: What does the data say about its Minimum inhibitory concentration (MIC); head: IC50 VALUES? Entry: CNC1=N[N+]2=C(C)c3[c](c4ccc(OC)cc4oc3=O)[Ru-4]2([C]#[O+])([P+](c2ccccc2)(c2ccccc2)c2ccccc2)([P+](c2ccccc2)(c2ccccc2)c2ccccc2)[S]1 [Complex 2, [Ru(7MAC-mtsc)(CO)(PPh3)2]]
Response given: 14.70

###

- test_system: BSA (Bos taurus)
- Construct: purchased HiMedia (Mumbai, India)
- Sequence (P02769 25-607): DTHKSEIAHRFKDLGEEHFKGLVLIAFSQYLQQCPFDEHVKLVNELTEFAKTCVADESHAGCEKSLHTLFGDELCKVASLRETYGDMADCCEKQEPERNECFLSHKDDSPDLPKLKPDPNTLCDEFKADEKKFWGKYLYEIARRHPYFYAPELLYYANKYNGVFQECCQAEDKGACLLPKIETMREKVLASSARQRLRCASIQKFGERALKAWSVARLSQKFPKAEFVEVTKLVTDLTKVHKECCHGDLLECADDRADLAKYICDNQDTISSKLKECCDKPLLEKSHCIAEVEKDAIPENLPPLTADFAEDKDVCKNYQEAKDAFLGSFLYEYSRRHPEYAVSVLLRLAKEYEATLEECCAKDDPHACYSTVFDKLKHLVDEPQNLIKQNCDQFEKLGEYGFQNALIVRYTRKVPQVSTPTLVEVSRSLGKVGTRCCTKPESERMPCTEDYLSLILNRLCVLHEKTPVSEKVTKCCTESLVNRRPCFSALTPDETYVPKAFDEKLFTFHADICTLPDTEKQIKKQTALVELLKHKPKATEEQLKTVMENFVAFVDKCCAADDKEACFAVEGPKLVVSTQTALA
- test_protocol: Three-dimensional fluorescence spectra of BSA
- Assay type: binding, bovine
- cond: BSA 10 μM + compound 10 μM, pH 7.4, 298 K
recorded_endpoint: Fluorescence peaks Stokes Δλ
Numeric answer plus unit only.

compound="COc1ccc2[c]3c(c(=O)oc2c1)C(C)=[N+]1N=C(N)[S][Ru-4]31([C]#[O+])([P+](c1ccccc1)(c1ccccc1)c1ccccc1)[P+](c1ccccc1)(c1ccccc1)c1ccccc1 [Complex 1, [Ru(7MAC-tsc)(CO)(PPh3)2]]" recorded_endpoint="Fluorescence peaks Stokes Δλ" obs_value="58 nm"
compound="COc1ccc2[c]3c(c(=O)oc2c1)C(C)=[N+]1N=C(Nc2ccccc2)[S][Ru-4]31([C]#[O+])([P+](c1ccccc1)(c1ccccc1)c1ccccc1)[P+](c1ccccc1)(c1ccccc1)c1ccccc1 [Complex 4, [Ru(7MAC-ptsc)(CO)(PPh3)2]]" recorded_endpoint="Fluorescence peaks Stokes Δλ" obs_value="60 nm"
compound="CNC1=N[N+]2=C(C)c3[c](c4ccc(OC)cc4oc3=O)[Ru-4]2([C]#[O+])([P+](c2ccccc2)(c2ccccc2)c2ccccc2)([P+](c2ccccc2)(c2ccccc2)c2ccccc2)[S]1 [Complex 2, [Ru(7MAC-mtsc)(CO)(PPh3)2]]" recorded_endpoint="Fluorescence peaks Stokes Δλ" obs_value="59 nm"

Next item in the queue.
Challenge: What does the data say about its Fluorescence peaks Stokes Δλ? Entry: CCNC1=N[N+]2=C(C)c3[c](c4ccc(OC)cc4oc3=O)[Ru-4]2([C]#[O+])([P+](c2ccccc2)(c2ccccc2)c2ccccc2)([P+](c2ccccc2)(c2ccccc2)c2ccccc2)[S]1 [Complex 3, [Ru(7MAC-etsc)(CO)(PPh3)2]]
Response given: 59 nm
